TARGET: SARS-CoV-1 Mpro (Severe acute respiratory syndrome coronavirus, UniProt P0C6X7)
ASSAY_DETAILS: biochemical
pIC50: −log10 of the molar value.
Entry flag: yes (1) if pIC50 reaches 7; no (0) if it does not.

Is reported pIC50 greater than or equal to 7 here: CC(C)c1ccc(F)c2[nH]c(C(=O)N3C[C@H]4[C@@H]([C@H]3C(=O)N[C@H](C#N)C[C@@H]3CCNC3=O)C4(C)C)cc12 [Compound 131]
no (0)

Is reported pIC50 greater than or equal to 7 here: CC(C)(C)[C@H](NC(=O)C(F)(F)F)C(=O)N1C[C@H]2[C@@H]([C@H]1C(=O)N[C@H](C=O)C[C@@H]1CCNC1=O)C2(C)C [Compound 12]
yes (1)

Is reported pIC50 greater than or equal to 7 here: O=C[C@H](C[C@@H]1CCNC1=O)NC(=O)[C@@H]1CC(F)(F)CN1C(=O)c1cc2ccccc2[nH]1 [Compound 115]
no (0)

Is reported pIC50 greater than or equal to 7 here: CC1(C)[C@@H]2[C@@H](C(=O)N[C@H](C=O)C[C@@H]3CCNC3=O)N(C(=O)c3cc4cccc(C#N)c4[nH]3)C[C@@H]21 [Compound 32]
yes (1)

Is reported pIC50 greater than or equal to 7 here: CC(C)c1ccc(Cl)c2[nH]c(C(=O)N3C[C@H]4[C@@H]([C@H]3C(=O)N[C@H](C=O)C[C@@H]3CCNC3=O)C4(C)C)cc12 [Compound 88]
yes (1)

Is reported pIC50 greater than or equal to 7 here: O=C[C@H](C[C@@H]1CCNC1=O)NC(=O)[C@@H]1CC2(CCC2)CN1C(=O)c1cc2ccccc2[nH]1 [Compound 10]
yes (1)
